Test system: PRKACA (mouse)
CONDITION SET: compound 10.0 µM; accession and sequence are those of the human protein
PROPERTY LABEL: inhibition (%)
Hi! Could you send only the number? It should be in %, unit omitted.

Kindly note the recorded inhibition for c1ccc(-c2n[nH]cc2-c2ccnc3ccccc23)nc1 , which is 1

====

// reported inhibition per item
TESTED SYSTEM: PRKAA1 (human) (UniProt Q13131)
Sequence (Q13131 whole entry, looked up): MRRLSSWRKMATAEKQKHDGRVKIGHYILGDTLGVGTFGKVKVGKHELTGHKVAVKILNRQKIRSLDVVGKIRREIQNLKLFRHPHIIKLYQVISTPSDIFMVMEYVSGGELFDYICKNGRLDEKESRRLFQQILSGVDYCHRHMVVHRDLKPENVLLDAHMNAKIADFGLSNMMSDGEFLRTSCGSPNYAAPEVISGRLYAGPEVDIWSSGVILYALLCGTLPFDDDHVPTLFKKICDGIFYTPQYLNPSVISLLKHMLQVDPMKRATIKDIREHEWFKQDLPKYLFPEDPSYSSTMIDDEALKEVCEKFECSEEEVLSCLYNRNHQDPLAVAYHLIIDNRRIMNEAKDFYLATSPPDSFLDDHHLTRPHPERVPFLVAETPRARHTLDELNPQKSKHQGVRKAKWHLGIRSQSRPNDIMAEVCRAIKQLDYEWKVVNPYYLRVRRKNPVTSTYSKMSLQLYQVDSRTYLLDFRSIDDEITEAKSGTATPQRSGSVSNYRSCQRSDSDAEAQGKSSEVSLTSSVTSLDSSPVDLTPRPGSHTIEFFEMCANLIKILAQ
CONDITION SET: compound 10.0 µM
Hi! Could you send only the number? It should be in %, unit omitted.

Take a look at these entries with their results.
{"MOLECULE": "NC(=O)c1sc(-c2ccsc2)cc1N", "TESTED SYSTEM": "PRKAA1 (human) (UniProt Q13131)", "RECORDED RESULT": 1}
{"MOLECULE": "COc1cc2ncnc(Nc3ccc(Cl)cc3F)c2cc1OC", "TESTED SYSTEM": "PRKAA1 (human) (UniProt Q13131)", "RECORDED RESULT": 2}
{"MOLECULE": "O=C(NC(NC(=S)Nc1ccc(F)c([N+](=O)[O-])c1)C(Cl)(Cl)Cl)C(c1ccccc1)c1ccccc1 (stereo unspecified)", "TESTED SYSTEM": "PRKAA1 (human) (UniProt Q13131)", "RECORDED RESULT": 0}
{"MOLECULE": "O=S(=O)(c1cccc2cnccc12)N1CCCNCC1", "TESTED SYSTEM": "PRKAA1 (human) (UniProt Q13131)", "RECORDED RESULT": 0}
{"MOLECULE": "O=c1[nH]nc(Sc2ncc([N+](=O)[O-])s2)n1-c1ccc2c(c1)OCCO2", "TESTED SYSTEM": "PRKAA1 (human) (UniProt Q13131)", "RECORDED RESULT": 2}

Kindly note the recorded inhibition for O=C1Nc2cc(Br)ccc2/C1=C1/Nc2ccccc2/C1=N\O , which is 7

Kindly note the recorded inhibition for CCN(CC)CCCCN1c2ccccc2Oc2ccc(Cl)cc21 , which is 0

Kindly note the recorded inhibition for C=CC(=O)c1ccc2ccccc2c1 , which is 0

====

TESTED SYSTEM: PRKAA2 (human)
CONDITION SET: compound 10.0 µM
// reported inhibition per item
Hi! Could you send only the number? It should be in %, unit omitted.

Kindly note the recorded inhibition for COc1ccc(Cl)cc1NC(=O)Nc1cc(C)nc2ccccc12 , which is 0

Kindly note the recorded inhibition for O=c1cc(N2CCOCC2)oc2c(-c3ccccc3)cccc12 , which is 0

Kindly note the recorded inhibition for CN(C)c1ccc(/C=C2\C(=O)Nc3ccccc32)cc1 , which is 0

Kindly note the recorded inhibition for O=S(=O)(NCCNC/C=C/c1ccc(Br)cc1)c1cccc2cnccc12 , which is 22

Kindly note the recorded inhibition for CCN(CC)CCNC(=O)c1c(C)[nH]c(/C=C2\C(=O)Nc3ccc(F)cc32)c1C , which is 84

Kindly note the recorded inhibition for O=C1NC(=O)C(c2ccccc2[N+](=O)[O-])=C1Nc1ccc(O)c(Cl)c1 , which is 13

====

TESTED SYSTEM: AKT1 (human)
CONDITION SET: compound 10.0 µM
PROPERTY LABEL: inhibition (%)
Hi! Could you send only the number? It should be in %, unit omitted.

Kindly note the recorded inhibition for CC(C)(C)n1nc(-c2cccc3ccccc23)c2c(N)ncnc21 , which is 18

Kindly note the recorded inhibition for O=c1cc(N2CCOCC2)oc2c(-c3ccccc3)cccc12 , which is 0

Kindly note the recorded inhibition for O=S(=O)(NCCNC/C=C/c1ccc(Br)cc1)c1cccc2cnccc12 , which is 21

Kindly note the recorded inhibition for Nc1ncnc2[nH]nc(Nc3ccc(F)cc3)c12 , which is 3

Kindly note the recorded inhibition for C/C(O)=C(\C#N)C(=O)Nc1cc(Br)ccc1Br , which is 0

Source: the kinase profiling compilation of Christmann-Franck et al. (2016)
